src = patent US20220162261A1

biological target: T1, rh integrin α4β7 (R&D Systems #5397-A30) (human, UniProt P13612 34-970; P26010 20-723); test: competition ELISA vs MAdCAM-1
T1 construct: bought; coated on a nickel coated plate; also called immobilized α4β7; immobilized α4β7 integrin protein
Bridge positions count the residues as written; N and C are the ends. Square brackets hold non-standard residues; d marks the D form. NMeR = CN[C@@H](CCCNC(=N)N)C(=O)O; Pen = CC(C)(S)[C@H](N)C(=O)O
measured_parameter: IC50 (nM)

A = Ac-C[NMeR]SDTLCK-OH (disulfide 1-7 (inferred); also: dimer linked by PEG25, attachment not given here, also called peptide 200) [SEQ ID NO: 200]
B = Ac-C[NMeR]SDTL[Pen][dK]-NH2 (disulfide 1-7; also: homodimer via IDA linker on D-Lys8 side chains, also called peptide 203) [SEQ ID NO: 203]
Request: When the recorded IC50 values are compared, which is smaller: that of A or that of B ? Returns: label corresponding to the selected item.
Response: A
